Values compiled from paper PMC4723341.

System Tested: HIV-1 RT-associated RDDP activity, Y188L RT (Human immunodeficiency virus type 1 group M subtype B, UniProt P04585, Y775L)
Construct: The 1:1 ration between the p66/p51 subunits was also verified
Protocol Summary: RDDP activity assay, Y188L RT
Experimental Readout: pIC50
Answers are plain numbers, as −log10 of the molar value.

Reported pIC50 ( N#Cc1ccc(-c2csc(NN=C3C(=O)Nc4ccccc43)n2)cc1 ) = 4.78

---

System Tested: HIV-1 RT-associated RNase H activity, N474A RT (Human immunodeficiency virus type 1 group M subtype B, UniProt P04585, N1061A)
Construct: The 1:1 ration between the p66/p51 subunits was also verified
Protocol Summary: biochemical
Experimental Readout: IC50 (nM)
Give bare numbers, in nM.

Lab book: IC50 of CC(C)c1ccc(O)c(=O)c(O)c1 [BTP, β-thujaplicinol, reference compound] noted as 920
